- Assay method text: chemical genetic growth profiling, strain panel (AID 1159580);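 also: tested at 20 µM; growth read once vehicle control cultures reached saturation at 30 °C; 1 = growth at the plate median or of vehicle wells; lower values mean less growth of the strain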
- Reported conditions: S. cerevisiae deletion strains, growth OD, locus YHR079C, strain IRE1 (second series), stronger effect = lower value
The campaign covered roughly 5,500 compounds. About 2,000 (36%) were called active. Not shown: some 18% with an inconclusive outcome. This is one part of the list.
Value type: normalized growth
Output: the number by itself.

Challenge: Could you share which normalized growth value was measured for O=C1C=C(O)c2ccccc2C1=O ?
Response given: 0.981

Challenge: Item: C[N+]1(C)CCCC(OC(=O)C(O)(c2ccccc2)c2ccccc2)C1 (stereo not given)
Response given: 0.982

Challenge: Item: CC(=O)CCCCn1c(=O)c2c(ncn2C)n(C)c1=O
Response given: 1.01

Challenge: Item: CC(C)[C@@H]1CC[C@@H](C)CC1=O
Response given: 0.995

Challenge: Item: ClC1C(Cl)C(Cl)C(Cl)C(Cl)C1Cl (stereo not given)
Response given: 0.927

Challenge: Item: O=C(CCc1ccc(O)cc1)c1c(O)cc(O)cc1O
Response given: 1

Challenge: Item: Cn1c(=O)c2c(ncn2C)n(C)c1=O
Response given: 1.01

Challenge: Item: Cc1c(NC(C)C)c(=O)n(-c2ccccc2)n1C
Response given: 0.98

Challenge: Item: NS(=O)(=O)c1cc2c(cc1Cl)NCNS2(=O)=O
Response given: 0.996

Challenge: Item: C[C@]12[C@H](O)CC3C(CC[C@@H]4C[C@@H](O)CC[C@]34C)[C@@]1(O)CC[C@@H]2C1=CC(=O)OC1 (stereo not given in full)
Response given: 0.98
